- Tested on: HeLa
- protocol-details: Cytotoxicity against human HeLa cells assessed as inhibition of cell viability at 10 uM after 3 days by trypan blue dye exclusion assay
- Type: functional
- test-settings: 72 h
quantity-measured: inhibition at 10 µM (%)
Give a bare numeral; the unit % is implied.

Below: 5 molecules and their reported inhibition at 10 µM.
Prompt line: Recall and state the measured inhibition at 10 µM for CC(C)=CCn1ccnc1/C=C/C(=O)/C=C/c1nccn1CC=C(C)C .
Response line: 96.3

Prompt line: Tell us which inhibition at 10 µM value is on record for CCCCCCCn1ccnc1/C=C/C(=O)/C=C/c1nccn1CCCCCCC
Response line: 98.9

Prompt line: Check the records and state inhibition at 10 µM for O=C(/C=C/c1ccc(C(F)(F)F)nc1)/C=C/c1ccc(C(F)(F)F)nc1
Response line: 97.9

Prompt line: Could you please provide reported inhibition at 10 µM for CCCCn1ccnc1/C=C/C(=O)/C=C/c1nccn1CCCC ? Thanks!
Response line: 96.5

Prompt line: Query inhibition at 10 µM for CC(C)CCn1c(/C=C/C(=O)/C=C/c2nc3ccccc3n2CCC(C)C)nc2ccccc21
Response line: 96.6

New cases:
Prompt line: Hello, please tell me recorded inhibition at 10 µM for this one: Cc1nc(C(F)(F)F)c(/C=C/C(=O)/C=C/c2sc(C)nc2C(F)(F)F)s1
Response line: 93.7

Prompt line: For the molecule Cc1noc(C)c1/C=C/C(=O)/C=C/c1c(C)noc1C , give its reported inhibition at 10 µM.
Response line: 99.2

Prompt line: Answer with the recorded inhibition at 10 µM for the molecule listed here: Cn1cc(/C=C/C(=O)/C=C/c2cnn(C)c2)cn1
Response line: 20.7

Prompt line: Annotate the molecule O=C(/C=C/c1cccnc1)/C=C/c1cccnc1 with its measured inhibition at 10 µM.
Response line: 97.7

Prompt line: Give the reported inhibition at 10 µM for this molecule. CCC(C)n1c(/C=C/C(=O)/C=C/c2nc3ccccc3n2C(C)CC)nc2ccccc21 (centres undefined)
Response line: 97.1

Prompt line: Give reported inhibition at 10 µM value for CCCCCCn1ccnc1/C=C/C(=O)/C=C/c1nccn1CCCCCC
Response line: 97.1

Prompt line: Please give measured inhibition at 10 µM of the following entry: CCn1c(/C=C/C(=O)/C=C/c2nc3ccccc3n2CC)nc2ccccc21
Response line: 98.9

Prompt line: Provide measured inhibition at 10 µM value, entry: CC(C)n1c(/C=C/C(=O)/C=C/c2nc3ccccc3n2C(C)C)nc2ccccc21
Response line: 97.5

Prompt line: Assign inhibition at 10 µM to the following record: CC(C)Cn1c(/C=C/C(=O)/C=C/c2nc3ccccc3n2CC(C)C)nc2ccccc21
Response line: 89.2

Prompt line: Return inhibition at 10 µM (reported value) for this molecule: CCn1ccnc1/C=C/C(=O)/C=C/c1nccn1CC
Response line: 95.1

Prompt line: Please indicate inhibition at 10 µM recorded for O=C(/C=C/c1cncs1)/C=C/c1cncs1
Response line: 98.6

###

- System: PC-3
- protocol-details: Cytotoxicity against human PC3 cells assessed as inhibition of cell viability at 10 uM after 3 days by trypan blue dye exclusion assay
- Type: functional
- test-settings: PC-3, 72 h
quantity-measured: inhibition at 10 µM (%)
Give the quantity in %, number only.

Prompt line: Write down inhibition at 10 µM measured for item Cc1noc(C)c1/C=C/C(=O)/C=C/c1c(C)noc1C
Response line: 94.5

Prompt line: Please give the documented inhibition at 10 µM of CCC(CC)n1c(/C=C/C(=O)/C=C/c2nc3ccccc3n2C(CC)CC)nc2ccccc21
Response line: 91

Prompt line: Report inhibition at 10 µM for CCC(C)n1c(/C=C/C(=O)/C=C/c2nc3ccccc3n2C(C)CC)nc2ccccc21 (stereo not drawn)
Response line: 84.7

Prompt line: Return inhibition at 10 µM (reported value) for this compound: CCCCCCn1ccnc1/C=C/C(=O)/C=C/c1nccn1CCCCCC
Response line: 84.6

Prompt line: Complete the entry with inhibition at 10 µM for CC(C)n1c(/C=C/C(=O)/C=C/c2nc3ccccc3n2C(C)C)nc2ccccc21
Response line: 83.8

Prompt line: For CCCCCCCn1ccnc1/C=C/C(=O)/C=C/c1nccn1CCCCCCC , write its inhibition at 10 µM.
Response line: 92.2

Next compound, inhibition at 10 µM to be filled in.
Prompt line: Given CCCCCn1c(/C=C/C(=O)/C=C/c2nc3ccccc3n2CCCCC)nc2ccccc21 , respond with its inhibition at 10 µM.
Response line: 81.7

###

Reported inhibition at 10 µM values are given for each entry in this list.
- Test system: PC-3
- protocol-details: Cytotoxicity against human PC3 cells assessed as inhibition of cell viability at 10 uM after 3 days by trypan blue dye exclusion assay
- Assay type: functional
- test-settings: PC-3, 72 h
Note: unit % is implicit; provide only the numeric part.

Guide cases for inhibition at 10 µM, answers given:
Prompt line: Annotate the compound Cn1nc(C(F)(F)F)c(/C=C/C(=O)/C=C/c2c(C(F)(F)F)nn(C)c2Cl)c1Cl with its measured inhibition at 10 µM.
Response line: 70.8

Prompt line: Provide one value: measured inhibition at 10 µM of CCCn1c(/C=C/C(=O)/C=C/c2nc3ccccc3n2CCC)nc2ccccc21
Response line: 85.2

Prompt line: Check the records and state inhibition at 10 µM for CCCCn1c(/C=C/C(=O)/C=C/c2nc3ccccc3n2CCCC)nc2ccccc21
Response line: 83.2

Prompt line: Please give measured inhibition at 10 µM of the following entry: CCCCCCn1c(/C=C/C(=O)/C=C/c2nc3ccccc3n2CCCCCC)nc2ccccc21
Response line: 82.8

Prompt line: Kindly indicate its recorded inhibition at 10 µM. Item: O=C(/C=C/c1cncs1)/C=C/c1cncs1
Response line: 89.6

Prompt line: Recall and state the measured inhibition at 10 µM for CC(C)Cn1c(/C=C/C(=O)/C=C/c2nc3ccccc3n2CC(C)C)nc2ccccc21 .
Response line: 84.2

Prompt line: // fetch inhibition at 10 µM given entry Cc1nc(C(F)(F)F)c(/C=C/C(=O)/C=C/c2sc(C)nc2C(F)(F)F)s1
Response line: 89.5

Prompt line: For O=C(/C=C/c1cc2ccccc2nc1Cl)/C=C/c1cc2ccccc2nc1Cl , write its inhibition at 10 µM.
Response line: 1.64

Prompt line: Identify measured inhibition at 10 µM corresponding to Cn1cc(Br)c(/C=C/C(=O)/C=C/c2nn(C)cc2Br)n1
Response line: 86.9

Prompt line: Name the recorded inhibition at 10 µM of the compound listed here: O=C(/C=C/c1ccc(C(F)(F)F)nc1)/C=C/c1ccc(C(F)(F)F)nc1
Response line: 91.6

Next:
Prompt line: Please list inhibition at 10 µM recorded for the compound CC(C)=CCn1ccnc1/C=C/C(=O)/C=C/c1nccn1CC=C(C)C
Response line: 85.5

Prompt line: Tell us which inhibition at 10 µM value is on record for CCC(CC)n1ccnc1/C=C/C(=O)/C=C/c1nccn1C(CC)CC
Response line: 93.9

Prompt line: Provide only the value of recorded inhibition at 10 µM for CC(C)CCn1c(/C=C/C(=O)/C=C/c2nc3ccccc3n2CCC(C)C)nc2ccccc21
Response line: 83.3

Prompt line: In one line, give reported inhibition at 10 µM of the entry O=C(/C=C/c1cccnc1)/C=C/c1cccnc1 .
Response line: 86.7

Prompt line: Return inhibition at 10 µM for the following compound: COc1cc(/C=C/C(=O)CC(=O)/C=C/c2ccc(O)c(OC)c2)ccc1O [CURCUMIN]
Response line: 55.1

Prompt line: Given the compound CC(C)CCn1ccnc1/C=C/C(=O)/C=C/c1nccn1CCC(C)C , write its reported inhibition at 10 µM.
Response line: 90.9

###

- System: LNCaP
- protocol-details: Cytotoxicity against human LNCAP cells assessed as inhibition of cell viability at 1 uM after 3 days by trypan blue dye exclusion assay
- Type: functional
- test-settings: 72 h
Each record gets a class by inhibition at 1 µM: low interval = under 30%, middle interval = from 30% up to 60%, high interval = 60% and over

Recorded results for 9 compounds are shown here.
Prompt line: Record Cn1nc(C(F)(F)F)c(/C=C/C(=O)/C=C/c2c(C(F)(F)F)nn(C)c2Cl)c1Cl — which class?
Response line: low interval

Prompt line: Please report the category associated with O=C(/C=C/c1cccc(Br)n1)/C=C/c1cccc(Br)n1 , nothing else.
Response line: middle interval

Prompt line: Band of Cc1cccc(/C=C/C(=O)/C=C/c2cccc(C)n2)n1 ?
Response line: high interval

Prompt line: State the band of Cn1cncc1/C=C/C(=O)/C=C/c1cncn1C
Response line: low interval

Prompt line: Please indicate the class for Cn1c(/C=C/C(=O)/C=C/c2nc3ccccc3n2C)nc2ccccc21 based on its inhibition at 1 µM.
Response line: middle interval

Prompt line: Hey, which category is CC(C)CCn1ccnc1/C=C/C(=O)/C=C/c1nccn1CCC(C)C in, do you know?
Response line: high interval

Prompt line: Into which bin does this compound go? CC(C)n1c(/C=C/C(=O)/C=C/c2nc3ccccc3n2C(C)C)nc2ccccc21
Response line: high interval

Prompt line: Category of CC(C)CCn1c(/C=C/C(=O)/C=C/c2nc3ccccc3n2CCC(C)C)nc2ccccc21 , please.
Response line: middle interval

Prompt line: Which class does Cc1noc(C)c1/C=C/C(=O)/C=C/c1c(C)noc1C fall in?
Response line: middle interval

Kindly review the next compound as well.
Prompt line: Returns: class label. Input: O=C(/C=C/c1nc2ccccc2s1)/C=C/c1nc2ccccc2s1
Response line: low interval
